Where do these numbers come from? They come from ChEMBL document CHEMBL1201862.

tested on: SF-268; assay: NCI tumour cell line growth inhibition, 48 h
The source made the active and inactive calls. Cut-off read from the data, not from the text of the source: active = GI50 up to about 1.1 µM and inactive = higher.
property.label: GI50

Here are 10 compounds together with their reported answers.
| compound | property.label | result |
| --- | --- | --- |
| CC[C@@H](/C=C\CCC1(C[C@@H](N)CCC=C(C)C)OCCO1)O[Si](C(C)C)(C(C)C)C(C)C | GI50 | 19.1 µM (inactive) |
| CCOC(=O)c1cnc(N(C)C)nc1SC(=N)N | GI50 | > 100 µM (inactive) |
| CC(C)(C)C1CCC(=O)/C(=C/CC2CC(=O)N(c3ccccc3)C(=O)C2)C1 (stereo unspecified) | GI50 | 20.1 µM (inactive) |
| CCOC(=O)c1ccc(Nc2nc3ccccc3n3cccc23)cc1 | GI50 | 35.7 µM (inactive) |
| CC(=O)N(CCc1ccccc1)C(C#N)c1ccccc1 (stereo unspecified) | GI50 | > 100 µM (inactive) |
| CC(=O)NNc1nc(C)c(C(=O)NNC(=O)C(=O)Nc2c(C)cccc2C(C)(C)C)s1 | GI50 | > 100 µM (inactive) |
| COC(=O)C1(Cc2ccccc2)Cc2cc3c(cc2C1=O)CCC3 (stereo unspecified) | GI50 | 22.2 µM (inactive) |
| CCOC(=O)C1(C(=O)OCC)C=C(c2ccccc2)N(C2OC(COC(C)=O)C(OC(C)=O)C(OC(C)=O)C2OC(C)=O)C1=S (stereo unspecified) | GI50 | > 100 µM (inactive) |
| O=C(/C=C/c1ccccc1)CCc1c(O)c2ccccc2oc1=O | GI50 | > 100 µM (inactive) |
| COc1cccc(/C=N/n2c(Cc3ccc(Cl)cc3)n[nH]c2=O)c1 | GI50 | 15.9 µM (inactive) |

q: Value lookup for GI50; key = C=CC[C@@]1(C(=O)OC)[C@H](Sc2ccccc2)C1(C)C
a: 85.5 µM (inactive)

q: Next entry: NC(Cc1ccc2oc3cc(=O)c4ccccc4c-3nc2c1)C(=O)O (stereo unspecified)
a: 43 µM (inactive)

q: Same thing, different compound: CC(C)(C)/N=C1/CC(C)(C)c2ccccc2/C(=N\c2ccccc2)S1
a: 28.2 µM (inactive)
